The following compounds are shown together with reported melting point values.

>  <compound>
CCOC(=O)C(N=CC1C=C(Cl)C=CC1(OC(C)=O)c1ccccc1)C(=O)OCC (stereo not given)

>  <valueObserved>
85 to 87 °C

$$$$
>  <compound>
Cc1ccc(Cl)c(Nc2ccccc2C=C2SC(=N)NC2=O)c1Cl

>  <valueObserved>
235 to 238 °C

$$$$
>  <compound>
CCCNC(=O)C1(CC=Cc2ccc([N+](=O)[O-])cc2)c2ccccc2-c2ccccc21

>  <valueObserved>
143 to 146 °C

$$$$

So what's the measured melting point for this one? FC(F)(F)c1ccc(-c2cc(C(F)(F)F)c3ncc(I)n3n2)cc1
123 to 125 °C

For C#CCn1c(=O)oc2cc(Cl)c(-c3ccc(C(F)(F)F)n(C)c3=O)cc21 then?
187 to 189 °C

* * *

The following molecules are shown together with reported melting point values.

# count of solved cases: 5
>  <molecule>
CCC(=O)C(CCCCCCCCc1ccc(O)cc1)C(=O)CC

>  <melting point>
164 to 165 °C

$$$$
>  <molecule>
O=C(O)C1CCCc2c(-c3ccc(Cl)cc3)noc2C1 (stereo unspecified)

>  <melting point>
215 to 217 °C

$$$$
>  <molecule>
Cc1cnc2n1N=C(c1ccc(F)cc1)c1cc3c(cc1C2)OCO3

>  <melting point>
190 °C

$$$$
>  <molecule>
Cc1ccc(CN2CCN3C(=O)OC(c4ccccc4)(c4ccccc4)C3C2)cc1 (stereo unspecified)

>  <melting point>
154 to 155 °C

$$$$
>  <molecule>
O=C(NCCc1cncn1CCc1ccccc1)[C@H]1CN(Cc2ccccc2)CCN1C(=O)NC1CCCCC1

>  <melting point>
64.4 °C

$$$$

So what's the measured melting point for this one? CCCCCCCCCCCCCC/C=C\CNC(=O)OC(C)(C)C
42 to 46 °C

For COc1cc2c(cc1Nc1ncc(F)c(Nc3ccc(N4CCOCC4)cc3OC)n1)CCN(CC(=O)OC(C)C)CC2 then?
94 to 110 °C

For CC(C)(C)OC(=O)c1ncn2c1cc(C(=O)N1CCN(C3CC3)CC1)c1cc(Cl)ccc12 then?
229 to 233 °C

* * *

The following compounds are shown together with reported melting point values.

# count of solved cases: 5
>  <compound>
CC(C)(C)c1ccc(C(O)CCCN2CCC(C3(O)c4ccccc4COc4ccccc43)CC2)cc1 (stereo not given)

>  <measurementKind>
melting point

>  <valueObserved>
135 to 137 °C

$$$$
>  <compound>
O=C(O)CCCCCCCSc1ccc(O)cc1

>  <measurementKind>
melting point

>  <valueObserved>
94 to 95 °C

$$$$
>  <compound>
CC#CCOc1ccc(SC(CCCCCC)C(=O)O)cc1 (stereo not given)

>  <measurementKind>
melting point

>  <valueObserved>
125 °C

$$$$
>  <compound>
COc1ccc2cc(CCC(C)O)ccc2c1 (stereo not given)

>  <measurementKind>
melting point

>  <valueObserved>
94 to 95 °C

$$$$
>  <compound>
Cn1cc(C(=O)O)c(=O)c2cc(F)c(N3CCNCC3)cc21

>  <measurementKind>
melting point

>  <valueObserved>
310 °C

$$$$

So what's the measured melting point for this one? CCCc1c(OCCCC#CC(=O)NCCCCc2cccnc2)ccc(C(C)=O)c1O
84 to 86 °C

For COc1ccc(-c2ccc(C(=N)NO)cc2)cc1-c1nc2cc(C(=N)NO)ccc2[nH]1 then?
> 340 °C

For Cn1nc(C(F)(F)F)cc1Oc1ccnc(-c2ccc(F)cc2)n1 then?
101 to 102 °C

For CSc1nccn1-c1cccc(C2=Nc3cc(O)c(-c4ccccc4F)cc3NC(=O)C2)c1 then?
> 250 °C

For CC(C)C(O)CN1N=C(c2ccc(Cl)cc2)CCC1=O (stereo not given) then?
90 to 92 °C
